B1: glmS ribozyme (parent)
chain: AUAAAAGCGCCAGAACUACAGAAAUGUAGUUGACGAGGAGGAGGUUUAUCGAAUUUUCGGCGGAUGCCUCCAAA

Variants of: B1
METHOD_SUMMARY: self-cleavage kobs at 2500 uM GlcN6P; higher = faster cleavage; RNA array
CONDITIONS_USED: with glucosamine-6-phosphate
This sample holds only a part of the variants without activity.
Kindly supply the reported self-cleavage kobs at 2500 uM GlcN6P values for the records listed here.

INPUT: self-cleavage kobs at 2500 uM GlcN6P for G35C A39U G59A ?
OUTPUT: < 1e-05 s⁻¹

INPUT: So what does the record say about self-cleavage kobs at 2500 uM GlcN6P for U31C U56G C67A ?
OUTPUT: 6.88e-05 s⁻¹

INPUT: I have this variant here, `U56G` , and I need its recorded self-cleavage kobs at 2500 uM GlcN6P.
OUTPUT: 0.0168 s⁻¹

INPUT: Reported self-cleavage kobs at 2500 uM GlcN6P, variant C10G U47G G60C : ____
OUTPUT: 0.000552 s⁻¹

INPUT: Quick one: self-cleavage kobs at 2500 uM GlcN6P for G9C C16A C34A G44C A64G ?
OUTPUT: < 1e-05 s⁻¹

INPUT: Need self-cleavage kobs at 2500 uM GlcN6P, item A53G G63U C71A
OUTPUT: < 1e-05 s⁻¹

INPUT: Please look up its self-cleavage kobs at 2500 uM GlcN6P: C11U A12C G43C
OUTPUT: < 1e-05 s⁻¹

INPUT: Look at this variant and give its reported self-cleavage kobs at 2500 uM GlcN6P. A12G G51U U56G
OUTPUT: < 1e-05 s⁻¹

INPUT: Any idea what its self-cleavage kobs at 2500 uM GlcN6P is? The variant is G13C A15G U45A
OUTPUT: 0.000129 s⁻¹

INPUT: State the recorded self-cleavage kobs at 2500 uM GlcN6P for this entry: G60A C68G
OUTPUT: 6.95e-05 s⁻¹

INPUT: Bench note: what self-cleavage kobs at 2500 uM GlcN6P did G51C C67G C70U show?
OUTPUT: < 1e-05 s⁻¹

INPUT: Form field: reported self-cleavage kobs at 2500 uM GlcN6P of A36C G41U A64C
OUTPUT: < 1e-05 s⁻¹

INPUT: Find the recorded self-cleavage kobs at 2500 uM GlcN6P belonging to G29A C34A and report it.
OUTPUT: < 1e-05 s⁻¹

INPUT: I'd like to know its self-cleavage kobs at 2500 uM GlcN6P. The variant in question is A14U G35C U65G G66U U69G
OUTPUT: < 1e-05 s⁻¹

INPUT: Report self-cleavage kobs at 2500 uM GlcN6P for G40C U54C please.
OUTPUT: 0.00131 s⁻¹

INPUT: If you can, please state the reported self-cleavage kobs at 2500 uM GlcN6P value of G63U G66C .
OUTPUT: < 1e-05 s⁻¹

INPUT: Requested read-out: self-cleavage kobs at 2500 uM GlcN6P. Entry: G35U C50G
OUTPUT: 0.000141 s⁻¹

INPUT: Entry C19A A33G A36G G40A A42G G62U G63A C71A has what self-cleavage kobs at 2500 uM GlcN6P?
OUTPUT: < 1e-05 s⁻¹

INPUT: Data request, read-out self-cleavage kobs at 2500 uM GlcN6P, for A6C A33G U46C C61G
OUTPUT: < 1e-05 s⁻¹

INPUT: Quick one: self-cleavage kobs at 2500 uM GlcN6P of C10U A33U G41U U49C G62C ?
OUTPUT: < 1e-05 s⁻¹

INPUT: Item C11A A39G has what recorded self-cleavage kobs at 2500 uM GlcN6P?
OUTPUT: 0.000121 s⁻¹

INPUT: Using the record for G37C A42C C71G , report its self-cleavage kobs at 2500 uM GlcN6P.
OUTPUT: < 1e-05 s⁻¹
